Below: a set of entries, each annotated with reported IC50.
Experiment: Antiproliferative activity against human RWPE1 cells assessed as inhibition of cell viability after 24 hrs by MTT assay
Format: cell-based
Conditions: RWPE-1, 24 h
The answer is to be given in µM; state only the numeric part.

C=C[C@@](C)(O)CC[C@@H]1C(C)=CC[C@@H]2C(C)(C)CCC[C@@]12C	81

What does the record list as IC50 for C=C[C@]1(C)CC[C@H]2[C@]3(C)CCCC(C)(C)[C@H]3[C@@H]3C[C@@]2(O1)C(=O)O3 ?
26.4

* * *

Below: a set of entries, each annotated with reported IC50.
System: K562
Assay: Antiproliferative activity against human K562 cells assessed as inhibition of cell viability after 24 hrs by MTT assay
Assay type: functional, cell-based
Conditions: K562, 24 h

The following molecules have reported results that may help.
C=C[C@]1(C)CC[C@H]2[C@]3(C)CCCC(C)(C)[C@H]3[C@@H]3C[C@@]2(O1)C(=O)O3	34 µM
C=C[C@@](C)(O)CC[C@@H]1C(C)=CC[C@@H]2C(C)(C)CCC[C@@]12C	15.8 µM

With those in mind, consider the next molecule.
What does the record list as IC50 for CC(C)[C@H]1CC[C@]2(C)C[C@]3(O)C(=CC(=O)[C@H]3C)[C@@H](C)CC[C@@H]12 ?
> 40 µM

These measurements were taken from ChEMBL document CHEMBL3297648.
